Where a name gives a salt, the structure may show the parent alone.
metric: melting point

// worked examples, melting point included
CN(C)CCc1csc(-c2ccc(F)c(C34CC5CC(CC(C5)C3)C4)c2)n1 (as salt: hydrochloride) [Compound 1c]: 280 to 282 °C
O=C(NCCc1csc(-c2ccc(F)c(C34CC5CC(CC(C5)C3)C4)c2)n1)c1ccc(F)cc1 (as salt: fumarate) [Compound 1g]: 226 to 227 °C
O=C(NCCc1nc(-c2ccccc2)cs1)C12CC3CC(CC(C3)C1)C2 [Compound 4c]: 107 to 108 °C
CN(C)CCc1csc(-c2ccc(C34CC5CC(CC(C5)C3)C4)cc2)n1 (as salt: fumarate) [Compound 2c]: 302 °C (dec.)

Dear colleague, could you please provide melting point for the compounds listed below?
1. Br.NCCc1nc(-c2ccc(C34CC5CC(CC(C5)C3)C4)cc2)cs1 [Compound 3c]
2. O=C(NCCc1csc(-c2ccc(F)c(C34CC5CC(CC(C5)C3)C4)c2)n1)N1CCCC1 (as salt: fumarate) [Compound 1i]

1. 261 to 263 °C
2. 301 °C (dec.)

----------
test_description: Cytotoxic activity against rat skeletal myoblast L6 cells (Alamar Blue)
Format: cell-based
reported_conditions: rat, L6 cells (rat skeletal muscle line); cytotoxicity, 6 days incubation + 8 hours Alamar Blue
metric: log10 IC50 (log10 of the value in µM)
All values: base-10 log of IC50 in µM.

Consider the reported log10 IC50 for these compounds:
CN(C)CCc1csc(-c2ccc(F)c(C34CC5CC(CC(C5)C3)C4)c2)n1: 0.18
NCCc1csc(-c2ccc(F)c(C34CC5CC(CC(C5)C3)C4)c2)n1: 0.02
Br.Nc1nc(-c2ccc(C34CC5CC(CC(C5)C3)C4)cc2)cs1: 1.14
Br.CN(C)CCc1nc(-c2ccc(C34CC5CC(CC(C5)C3)C4)cc2)cs1: 0.50
NCCc1csc(-c2ccc(C34CC5CC(CC(C5)C3)C4)cc2)n1: 0.61
CNCCc1csc(-c2ccc(F)c(C34CC5CC(CC(C5)C3)C4)c2)n1: 0.30

Hey, can you go through the list below and give me log10 IC50 for every item?
1. Br.NCCc1nc(-c2ccc(C34CC5CC(CC(C5)C3)C4)cc2)cs1
2. CNCCc1csc(-c2ccc(C34CC5CC(CC(C5)C3)C4)cc2)n1
3. Br.NCc1nc(-c2ccc(C34CC5CC(CC(C5)C3)C4)cc2)cs1

1: 0.62; 2: -0.02; 3: 1.10

----------
Provide the recorded melting point for the entries that follow.
Counter-ions that a name gives are not always drawn.

OCCc1csc(-c2ccc(C34CC5CC(CC(C5)C3)C4)cc2)n1 [Compound 2g]: 93 to 94 °C
CNCCc1csc(-c2ccc(C34CC5CC(CC(C5)C3)C4)cc2)n1 (as salt: fumarate) [Compound 2b]: 147 to 149 °C
NCCc1csc(-c2ccc(F)c(C34CC5CC(CC(C5)C3)C4)c2)n1 (as salt: hydrochloride) [Compound 1a]: 246 to 248 °C
O=C(NCCc1csc(-c2ccccc2)n1)C12CC3CC(CC(C3)C1)C2 [Compound 4a]: 135 to 136 °C

Provide each entry's melting point from the list below.
1. N#CSCc1csc(-c2ccc(C34CC5CC(CC(C5)C3)C4)cc2)n1 [Compound 2f]
2. N#CCc1csc(-c2ccc(C34CC5CC(CC(C5)C3)C4)cc2)n1 [Compound 2e]
3. CCCC(=O)NCCc1csc(-c2ccc(F)c(C34CC5CC(CC(C5)C3)C4)c2)n1 (as salt: fumarate) [Compound 1e]

1: 169 to 170 °C; 2: 159 to 160 °C; 3: 291 to 293 °C

// for each compound in input: emit melting point
1. Br.NCc1nc(-c2ccc(C34CC5CC(CC(C5)C3)C4)cc2)cs1 [Compound 3b]
2. CC(=O)NCCc1csc(-c2ccc(F)c(C34CC5CC(CC(C5)C3)C4)c2)n1 (as salt: fumarate) [Compound 1d]
3. CNCCc1csc(-c2ccc(F)c(C34CC5CC(CC(C5)C3)C4)c2)n1 (as salt: hydrochloride) [Compound 1b]

1. 172 °C (dec.)
2. 143 to 145 °C
3. 221 to 223 °C
